Ref: ChEMBL document CHEMBL3044874

# Tested on: Mus musculus
# TEST: Anticonvulsant activity in ip dosed Mus musculus Swiss albino (mouse) assessed as protection against maximal electroshock-induced seizure
# Format: functional
# log10 ED50 values compiled below
METRIC NAME: log10 ED50 (log10 of the value in mg/kg)

>  <MOLECULE>
OC(/C(=N\Cc1cccnc1)c1ccccc1)c1ccccc1 (centres undefined)

>  <log10 ED50>
1.32

$$$$
>  <MOLECULE>
C(=C\c1ccccc1)/C=N/Cc1cccnc1

>  <log10 ED50>
1.56

$$$$
>  <MOLECULE>
COc1cc(/C=N/Cc2cccnc2)cc(OC)c1OC

>  <log10 ED50>
1.86

$$$$
>  <MOLECULE>
COc1cc(/C=N/Cc2cccnc2)ccc1O

>  <log10 ED50>
1.72

$$$$
>  <MOLECULE>
COc1ccccc1/C=N/Cc1cccnc1

>  <log10 ED50>
1.07

$$$$
>  <MOLECULE>
C(=N\Cc1cccnc1)/c1ccccc1

>  <log10 ED50>
1.72

$$$$
>  <MOLECULE>
Clc1ccccc1/C=N/Cc1cccnc1

>  <log10 ED50>
1.07

$$$$
>  <MOLECULE>
CCC1(c2ccccc2)C(=O)NC(=O)NC1=O

>  <log10 ED50>
1.34

$$$$
>  <MOLECULE>
Clc1ccc(/C=N/Cc2cccnc2)cc1

>  <log10 ED50>
1.72

$$$$
>  <MOLECULE>
COc1ccc(/C=N/Cc2cccnc2)cc1O

>  <log10 ED50>
0.81

$$$$
>  <MOLECULE>
C/C(=N\Cc1cccnc1)c1ccccc1

>  <log10 ED50>
1.75

$$$$
>  <MOLECULE>
O=[N+]([O-])c1ccc(/C=N/Cc2cccnc2)cc1

>  <log10 ED50>
1.79

$$$$
>  <MOLECULE>
c1ccc(C(=NCc2cccnc2)c2ccccc2)cc1

>  <log10 ED50>
0.96

$$$$
>  <MOLECULE>
C/C(=N\Cc1cccnc1)c1cccc(N)c1

>  <log10 ED50>
0.94

$$$$
